Assay: Chemical stability of the compound in MeOH/H2O solvent assessed as half life by LC-MS/MS analysis
Format: physicochemical
Consider the following compounds; for each one, report its half-life.
Answers are plain numbers, in min.

// query Could you tell me which half-life is on file for CC[C@H](CNC(=O)c1[se]c2cc(OC)c(OC)cc2c1F)C(=O)O ?
// result 48

// below: half-life requested for another compound
// query Could you tell me which half-life is on file for COc1cc2sc3c(c2cc1OC)C(=O)N(CCC(=O)O)C3=O ?
// result 21

###

Assay: Cmax in mouse at 5 mg/kg, iv by LC-MS/MS analysis
Assay type: ADME, organism-based
Details: in vivo
Consider the following compounds; for each one, report its Cmax.
Answers are plain numbers, in µg/mL.

// query Could you tell me which Cmax is on file for COc1cc2cc(C(=O)CCC(=O)O)sc2cc1OC ?
// result 25.1

More entries:
// query Could you tell me which Cmax is on file for CC[C@H](CNC(=O)c1[se]c2cc(OC)c(OC)cc2c1F)C(=O)O ?
// result 48.4

The measured values listed here are drawn from ChEMBL document CHEMBL6178018.
